test system: Tov-21-G; experiment: Primary qHTS to identify gynecologic anti-cancer compounds using libraries of approved drugs and bioactive compounds (AID 1345084); details: Gynecologic cancer cell panel viability, ATPlite luminescence, 48 h; series mostly up to 57.5 µM; also: % is scaled to controls: 0 for no effect and ±100 for the full control effect; nearly all actives have a fitted effect of over 55% in size
Results filed as inconclusive are left out. Calls of active or inactive are those of the source. Calls follow the shape of the dose curve; as a rule, active = well fitted cell-killing curve with a large enough effect; inconclusive = small, poorly fitted or top-dose-only effect, or effect the other way; inactive = flat fitted curve, though single readings scatter.
quantity_kind: activity change, negative = cytotoxicity

Below are worked cases with known answers.
compound=COc1cc(C(C)=O)ccc1O[C@@H]1O[C@H](CO[C@@H]2OC[C@@H](O)[C@H](O)[C@H]2O)[C@@H](O)[C@H](O)[C@H]1O quantity_kind="activity change, negative = cytotoxicity" val=inactive
compound="C=C(C)C(O)COc1ccc(CC(=O)O)cc1 (stereo unspecified)" quantity_kind="activity change, negative = cytotoxicity" val=inactive
compound=O=C(OC[C@H]1O[C@H](O[C@]2(CO)O[C@H](CO)[C@@H](O)[C@@H]2O)[C@H](O)[C@@H](O)[C@@H]1O)c1ccc(O)cc1 quantity_kind="activity change, negative = cytotoxicity" val=inactive
compound="CCCC1=CC2=C(CO1)C(=O)C(C)(O)C(OC(=O)c1c(C)cc(OC)cc1O)C2 (stereo unspecified)" quantity_kind="activity change, negative = cytotoxicity" val=inactive
compound=COc1cnc(-c2ccc(Cn3c(CC(C)(C)C(=O)O)c(SC(C)(C)C)c4cc(OC[C@@H]5Cc6ccccc6N5C(C)=O)ccc43)cc2)nc1 quantity_kind="activity change, negative = cytotoxicity" val=inactive
compound=CC1=C2C[C@@]3(C)[C@@H](CCC[C@@H]3C)C[C@@]2(O)OC1=O quantity_kind="activity change, negative = cytotoxicity" val=inactive
compound="CC(=O)O[C@H]1C[C@@H](O)C(C)(C)C2C[C@@H](OC(C)=O)[C@@]3(C)C4=CCC(C(CO)CC(O)C5OC5(C)C)[C@]4(C)CCC3[C@]21C (stereo partly specified)" quantity_kind="activity change, negative = cytotoxicity" val=inactive
compound=O=C1C[C@@]2(C(=O)N1)C(=O)N(Cc1ccc(Br)cc1F)C(=O)c1cccn12 quantity_kind="activity change, negative = cytotoxicity" val=inactive

As a next step, examine the compound that follows.
Problem: Find the measured activity change, negative = cytotoxicity: item OC[C@H]1O[C@@H](OCc2ccccc2)[C@H](O)[C@@H](O)[C@@H]1O , target or system Tov-21-G.
Solution: inactive

----------
Recorded measurements of max response, one per entry
system: CRL-7250; experiment: Cytotoxic Profiling of Annotated Libraries Using Quantitative High-Throughput Screening (AID 1296008); conditions: Five cell lines viability, CellTiter-Glo ATP luminescence, 48-72 h; stronger effect = lower value; also: % is scaled to controls: 0 for no effect and ±100 for the full control effect; nearly all actives have a fitted effect of over 60% in size
Records with an inconclusive call do not appear.
The answer is to be given in %; state only the numeric part.

Below are worked cases with known answers.
compound=Cc1ccc(-n2nc(C(C)(C)C)cc2NC(=O)Nc2cc(COc3cccnc3)[nH]n2)cc1 unit_info=% val=-4.33
compound="COc1ccc(C2OCC3C(c4cc(OC)c5c(c4)OCO5)OCC23)cc1OC (configuration not stated)" unit_info=% val=3.22
compound=COc1cc(O)c(C(=O)O)c(CCc2ccccc2)c1 unit_info=% val=-1.14
compound="C=C(C(=O)O)[C@@H]1CC[C@@]2(C)CC[C@@H](O)C(=C)C2C1 (some centres not stated)" unit_info=% val=4.71
compound=COC(=O)[C@]1(C)CCC[C@@]2(C)[C@@H]3CC[C@@H]4C[C@@]3(CC[C@@H]21)C[C@H]4C(=O)O unit_info=% val=-6.63

Problem: Find the measured max response: item C/C=C1/[C@H](O[C@@H]2O[C@H](CO)[C@@H](O)[C@H](O)[C@H]2O)OC=C(C(=O)OC)[C@H]1CC(=O)OCCc1ccc(OC(=O)C[C@@H]2C(C(=O)OC)=CO[C@@H](O[C@@H]3O[C@H](CO)[C@@H](O)[C@H](O)[C@H]3O)/C2=C/C)cc1 , target or system CRL-7250.
Solution: -8.75

Problem: Find the measured max response: item CC(C)=CCc1cc(O[C@@H]2O[C@H](CO[C@@H]3OC[C@](O)(CO)[C@H]3O)[C@@H](O)[C@H](O)[C@H]2O)ccc1O , target or system CRL-7250.
Solution: -4.68

----------
tested on: JEG-3; assay: Primary qHTS to identify gynecologic anti-cancer compounds using libraries of approved drugs and bioactive compounds (AID 1345084); details: Gynecologic cancer cell panel viability, ATPlite luminescence, 48 h; series mostly up to 57.5 µM; also: % is scaled to controls: 0 for no effect and ±100 for the full control effect; nearly all actives have a fitted effect of over 55% in size
Records with an inconclusive call do not appear. Active and inactive are the calls of the source. Calls come from the whole dose curve; as a rule, active = well fitted cell-killing curve with a large enough effect; inconclusive = small, poorly fitted or top-dose-only effect, or effect the other way; inactive = flat fitted curve, though single readings scatter.
quantity_kind: activity change, negative = cytotoxicity

Below are worked cases with known answers.
compound=C[C@]12CC/C(=N\OCC(=O)O)C=C1CC[C@@H]1[C@@H]2[C@@H](O)C[C@@]2(C)[C@H]1CC[C@]2(O)C(=O)CO target_or_test_system=JEG-3 val=inactive
compound=COC(=O)C[C@@H]1C(C(=O)O)=CO[C@@H](O[C@@H]2O[C@H](CO)[C@@H](O)[C@H](O)[C@H]2O)/C1=C\COC(=O)/C=C/c1ccc(O)c(OC)c1 target_or_test_system=JEG-3 val=inactive
compound="C[C@@H]1O[C@@H](O[C@H]2[C@H](O[C@H]3[C@H](O[C@H]4CC[C@@]5(C)C(CC[C@]6(C)C5CC=C5[C@@H]7CC(C)(C)CC(=O)[C@]7(C)CC[C@]56C)[C@@]4(C)CO)O[C@H](C(=O)O)[C@@H](O)[C@@H]3O)O[C@H](CO)[C@H](O)[C@@H]2O)[C@H](O)[C@H](O)[C@H]1O (stereo partly specified)" target_or_test_system=JEG-3 val="4.8% [at 11.6 µM] (inactive)"
compound=COC(=O)C1=CO[C@@H](O[C@@H]2O[C@H](CO)[C@@H](O)[C@H](O)[C@H]2O)[C@H]2[C@@H]1[C@H](O)C[C@]2(C)O target_or_test_system=JEG-3 val=inactive
compound="C=C1CC/C=C(/C(=O)O)CCC2C1CC2(C)C (stereo unspecified)" target_or_test_system=JEG-3 val=inactive

Problem: Given the entry CC(CCO)CCC1C2(C)CCCC(C)(C)C2CC[C@@]1(C)O (stereo partly specified) , report its measured activity change, negative = cytotoxicity.
Solution: inactive

----------
tested on: Zika virus NS2B-NS3 protease (linked construct); experiment: Primary screen NINDS Rhodamine qHTS for Zika virus inhibitors (AID 1347160); settings: purified NS2B-NS3 protease, Rhodamine110 substrate fluorescence; series mostly up to 33.1 µM; also: nearly all actives have a fitted effect of over 55% in size
Results filed as inconclusive are left out. The source made the active and inactive calls. Calls come from the whole dose curve; as a rule, active = well fitted inhibition curve with a large enough effect; inconclusive = small, poorly fitted or top-dose-only effect; inactive = no such curve, though single readings can be large or run the other way.
quantity_kind: outcome

Below are worked cases with known answers.
compound=COc1ccccc1N1CCN(CCCCNC(=O)c2ccc(-c3cscn3)cc2)CC1 val=inactive
compound="O=C(/C=C/c1ccc(O)cc1)OCC1OC(O)C(OC2OC(CO)C(O)C(O)C2O)C(O)C1O (configuration not stated)" val=inactive
compound="C=C1CC[C@@]2(OC1)O[C@H]1CC3[C@@H]4CC=C5C[C@@H](O)C[C@@H](O[C@@H]6OC[C@H](O)[C@H](O)[C@H]6O[C@@H]6O[C@@H](C)[C@H](O)[C@@H](O)[C@H]6O)[C@]5(C)C4CC[C@]3(C)[C@H]1[C@@H]2C (some centres not stated)" val=inactive
compound="C[C@H]1[C@H](C)CC[C@]2(C(=O)OC3OC(CO)C(O)C(O)C3O)CC[C@]3(C(=O)O)C(=CCC4[C@@]5(C)CC[C@H](O[C@@H]6O[C@@H](C)[C@H](OC7OC(CO)C(O)C(O)C7O)[C@@H](O)[C@H]6O)C(C)(C)C5CC[C@]43C)[C@H]12 (some centres not stated)" val=inactive
compound="CC(C(=O)Nc1cc(C#N)ccc1CCCC(=O)O)c1ccc(F)c2ccccc12 (configuration not stated)" val=inactive

Problem: Find the measured outcome: item COC(=O)C(Cc1ccccc1)NC(=O)c1ccccc1 (configuration not stated) , target or system Zika virus NS2B-NS3 protease (linked construct).
Solution: inactive

Problem: Find the measured outcome: item C=C(C(=O)O)[C@@H]1CC[C@@]2(C)CCC[C@@](C)(O)[C@@H]2C1 , target or system Zika virus NS2B-NS3 protease (linked construct).
Solution: inactive

----------
tested on: CAOV3; test: Primary qHTS to identify gynecologic anti-cancer compounds using libraries of approved drugs and bioactive compounds (AID 1345084); details: Gynecologic cancer cell panel viability, ATPlite luminescence, 48 h; series mostly up to 57.5 µM; also: % is scaled to controls: 0 for no effect and ±100 for the full control effect; nearly all actives have a fitted effect of over 55% in size
Inconclusive results are not listed. Calls of active or inactive are those of the source. The call rests on the fitted dose curve; in most records, active means well fitted cell-killing curve with a large enough effect; inconclusive means small, poorly fitted or top-dose-only effect, or effect the other way; inactive means flat fitted curve, though single readings scatter.
quantity_kind: activity change, negative = cytotoxicity

molecule="C=C1CCC2(C(=O)OC3OC(CO)C(O)C(O)C3O)CCC3(C)C(=CCC4C5(C)CCC(OC6OC(CO)C(OC7OC(C)C(O)C(O)C7O)C(OC7OCC(O)C(O)C7O)C6O)C(C)(C)C5CCC43C)C2C1 (stereo not drawn)" val="1.68% [at 11.6 µM] (inactive)"
molecule="C[C@@H]1O[C@@H](OC2C(O[C@H]3[C@H](O[C@H]4CC[C@@]5(C)C(CC[C@]6(C)C5CC=C5C7CC(C)(C)CC(O)[C@]7(C)CC[C@]56C)C4(C)C)O[C@H](C(=O)O)[C@@H](O)[C@@H]3O)OC(CO)C(O)C2O)[C@H](O)[C@H](O)[C@H]1O (stereo partly drawn)" val="0.0107% [at 11.6 µM] (inactive)"
molecule=COc1ccccc1N1CCN(CCCCNC(=O)c2ccc(-c3cscn3)cc2)CC1 val=inactive
molecule=CC1(C)C[C@H]2C=C(C=O)[C@]3(C(=O)O)C[C@]3(C)[C@H]2C1 val=inactive
molecule=CC[C@H](NC(=O)c1c(O)c(-c2ccccc2)nc2ccccc12)c1ccccc1 val=inactive
molecule=CCC(CC)CC1(C(=O)Nc2ccccc2SC(=O)C(C)C)CCCCC1 val=inactive
molecule=C[C@@H]1[C@H]2[C@H](O[C@@H]3O[C@H](CO)[C@@H](O)[C@H](O)[C@H]3O)OC=C(C(=O)O)[C@H]2C[C@@H]1OC(=O)/C=C/c1ccc(O)cc1 val=inactive
molecule="COC(=O)C(Cc1ccccc1)NC(=O)c1ccccc1 (stereo not drawn)" val=inactive

Problem: Given the entry CC(=O)O[C@@H]1[C@H](O[C@@H]2OC[C@](O)(CO)[C@H]2O)[C@@H](O[C@@H]2O[C@@H](C)[C@H](O)[C@@H](O[C@@H]3O[C@H](CO)[C@@H](O)[C@H](O)[C@H]3O)[C@H]2O)[C@H](OC(=O)[C@]23CCC(C)(C)C[C@H]2C2=CCC4[C@@]5(C)C[C@H](O)[C@H](O[C@@H]6O[C@H](C(=O)O)[C@@H](O)[C@H](O)[C@H]6O)[C@@](C)(C(=O)O)C5CC[C@@]4(C)[C@]2(C)CC3)O[C@@H]1C (stereo partly drawn) , report its measured activity change, negative = cytotoxicity.
Solution: 22.8% [at 6.55 µM] (inactive)

Hello, the source for this data is PubChem BioAssay (NCATS), in case you need it.
